Measured RP-LC retention time by item
assay: gradient 5% acetonitrile 3 min, to 50% in 2 min, to 85% in 15 min, held 3 min, 100 µL/min; conditions: column: Zorbax Extend-C18 2.1 x 50 mm; eluents: water / acetonitrile, 0.1% formic acid
For clarity, give the value followed by its unit.

CCc1ccc(NC(=O)Cc2nc(C)c(C(=O)NCc3ccc(F)cc3)s2)cc1	946 s
Cn1nc(C(=O)N2CCCCC2)c2c1CCN(C(=O)CCC(=O)NCC1CCCO1)C2 (stereo not drawn)	608 s

Sample Cc1c(S(=O)(=O)Nc2ccccc2)c(C)n(C)c1-c1nnc(C2CCC2)o1 ; RP-LC retention time observed: 870 s

---

assay: gradient 5% acetonitrile 3 min, to 50% in 2 min, to 85% in 15 min, held 3 min, 100 µL/min; settings: column: Zorbax Extend-C18 2.1 x 50 mm; eluents: water / acetonitrile, 0.1% formic acid
Measured property: RP-LC retention time (s)
Quick reminder: number only, in s, skip the unit.

Example compounds with recorded RP-LC retention time:
Cc1ccc(-c2nnc(Cc3nc(-c4ccccc4F)no3)o2)cc1C	1040
CCn1cc(CC(=O)NCC2CCCCC2)c2cccnc21	783
Cc1ccc(NC(=O)CC(C)S(=O)(=O)c2ccc3c(c2)CCN3C(=O)C2CC2)cc1N(C)C (configuration not stated)	983
CCCN1C(=O)c2cc(S(=O)(=O)N3CCCC3)ccc2Oc2cccnc21	913
O=C(Cc1ccc(Cl)cc1)NC1CCN(c2nnc3ccc(C(F)(F)F)cn23)CC1	799

Please look at the following compound next.
Sample O=C(C1CCN(c2nnc(-n3cccc3)s2)CC1)N1CCN(c2ncccn2)CC1 ; RP-LC retention time observed: 738

---

Measured RP-LC retention time by item
assay: gradient 5% acetonitrile 3 min, to 50% in 2 min, to 85% in 15 min, held 3 min, 100 µL/min; settings: column: Zorbax Extend-C18 2.1 x 50 mm; eluents: water / acetonitrile, 0.1% formic acid
Quick reminder: number only, in s, skip the unit.

Example compounds with recorded RP-LC retention time:
Cc1ccc(CNC(=O)c2cn3c(n2)COCC3)cc1C	704
CN1C(=O)c2cc(C(=O)NCc3ccccc3F)nn2CC1(C)C(=O)NCc1ccccc1 (stereo not drawn)	697

Sample CNC(=O)N1CCCC(c2cccc(C(=O)NCc3ccc(SC)cc3)c2)C1 (stereo not drawn) ; RP-LC retention time observed: 779

Sample CCN1CCN(c2c(C(=O)c3ccc(C)c(C)c3)cnc3cc(OC)c(OC)cc23)CC1 ; RP-LC retention time observed: 579

Sample O=C(NCCOc1ccc(F)cc1)c1ccc(S(=O)(=O)N2CCCC2)cc1 ; RP-LC retention time observed: 813

Sample N=c1nc(N2CCCCC2)cc(N)n1O ; RP-LC retention time observed: 676

Sample O=C(c1cnccn1)N1CCC(c2noc(C3CC3)n2)C1 (stereo not drawn) ; RP-LC retention time observed: 646

Sample CCc1cc2c(N3CCCC(C(=O)N(C)C)C3)nccc2s1 (stereo not drawn) ; RP-LC retention time observed: 640

---

assay: gradient 5% acetonitrile 3 min, to 50% in 2 min, to 85% in 15 min, held 3 min, 100 µL/min; details: column: Zorbax Extend-C18 2.1 x 50 mm; eluents: water / acetonitrile, 0.1% formic acid
Measured property: RP-LC retention time (s)
Quick reminder: number only, in s, skip the unit.

Example compounds with recorded RP-LC retention time:
N#Cc1ccc(C(=O)NC2CCN(c3cc(-c4cccs4)[nH]n3)C2)cc1 (stereo not drawn)	700
CCOc1ccc(-c2cc3c(=O)n(Cc4nc(-c5ccc(OC(C)C)cc5)no4)ncn3n2)cc1	1260
Cc1ccc(NC(=O)C2CCN(S(=O)(=O)c3ccc4c(c3)CCCC(=O)N4)CC2)cc1	948
Cc1cc(C)c(-c2csc(NC(=O)c3ccc(S(=O)(=O)N4CCOCC4)cc3)n2)c(C)c1	1110
COc1cc(NC(=O)COc2nc(C)nc3ccccc23)cc(OC)c1	735
COc1ccccc1N1CCN(Cc2nc(-c3ccc(N4CCCCC4)nc3)no2)CC1	757
O=C(Cc1csc(NC(=O)C2CCCC2)n1)NC1CCN(Cc2ccccc2)CC1	569

Sample CCOc1ccccc1CNC(=O)c1c(C)sc2ccn(C)c(=O)c12 ; RP-LC retention time observed: 823

---

assay: gradient 5% acetonitrile 3 min, to 50% in 2 min, to 85% in 15 min, held 3 min, 100 µL/min; conditions: column: Zorbax Extend-C18 2.1 x 50 mm; eluents: water / acetonitrile, 0.1% formic acid
Measured RP-LC retention time by item

Example molecules with recorded RP-LC retention time:
CCCN1CCN(C(=O)C2Cc3cc(S(=O)(=O)N4CCCCC4)ccc3N2C(C)=O)CC1 (stereo not given)	630 s
CCN1C(=O)c2cccnc2Sc2cc(CNC(=O)COc3ccccc3)ccc21	798 s
COc1ccc2c(C)c(CC(=O)N3CCC(C(N)=O)CC3)c(=O)oc2c1OC	622 s

Sample COc1ccc(-c2nnc(-c3ccc(C)c(S(=O)(=O)N(C)C)c3)o2)cc1 ; RP-LC retention time observed: 966 s

Sample Cn1ncc(N2CCCC(C(=O)O)C2)cc1=O (stereo not given) ; RP-LC retention time observed: 580 s

Sample CCc1cc(N2CCN(C(=O)c3ccc(C#N)cc3)CC2)nc2nncn12 ; RP-LC retention time observed: 581 s

Sample Cc1ccn2cc(-c3ccc(NS(=O)(=O)c4ccc(Cl)cc4)cc3)nc2n1 ; RP-LC retention time observed: 679 s

Sample Cc1cc(C)cc(NC(=O)C(C)C2CCN(C(=O)Nc3ccc(F)cc3)CC2)c1 (stereo not given) ; RP-LC retention time observed: 917 s

Sample COCc1nc2cccnc2n1C1CCN(C(=O)Nc2cc(OC)c(OC)c(OC)c2)CC1 ; RP-LC retention time observed: 659 s

Sample O=C(c1cn2ccnc(-c3ccccc3)c2n1)N1CCN(C2CCCCC2)CC1 ; RP-LC retention time observed: 637 s

Sample Cc1ccc(C)c(NC(=O)N2CCN(c3cnn4c(C)nnc4c3)CC2)c1 ; RP-LC retention time observed: 629 s

Sample CC1=C(c2ccccc2)S(=O)(=O)N=C1N1CCCN(C(=O)NCc2ccco2)CC1 ; RP-LC retention time observed: 767 s

Sample CCCCS(=O)(=O)N1CCN(c2nc(N3CCOCC3)nc(-n3ccnc3)n2)CC1 ; RP-LC retention time observed: 604 s

Sample Cc1nnc(-c2ccc3ccn(CC(=O)NCc4ccc5c(c4)OCO5)c3c2)o1 ; RP-LC retention time observed: 756 s

---

Measured RP-LC retention time by item
test: gradient 5% acetonitrile 3 min, to 50% in 2 min, to 85% in 15 min, held 3 min, 100 µL/min; conditions: column: Zorbax Extend-C18 2.1 x 50 mm; eluents: water / acetonitrile, 0.1% formic acid
Quick reminder: number only, in s, skip the unit.

Example compounds with recorded RP-LC retention time:
Cc1ccccc1NC(=O)N1CCCC1c1cc(C(C)C)on1 (stereo not drawn)	890
O=C(CN1c2ccc(F)cc2-c2ccccc2S1(=O)=O)NCc1ccc2c(c1)OCO2	913
COc1cccc(NC(=O)C2CCc3nc(N4CCCCC4)ncc3C2)c1 (stereo not drawn)	782
O=C(CNC(=O)C(c1ccccc1)c1ccccc1)NCC(=O)N1CCCc2ccccc21	875
CCCC(=O)Nc1nc(-c2ccc3c(c2)NC(=O)C(C)O3)c(C)s1 (stereo not drawn)	812

Sample CC1=C(c2ccccc2)S(=O)(=O)N=C1N1CCCN(C(=O)c2ccc(C)s2)CC1 ; RP-LC retention time observed: 821

Sample CCc1nc(OCC(=O)Nc2cc(OC)ccc2OC)c2ccccc2n1 ; RP-LC retention time observed: 821

Sample CCOc1ccc(S(=O)(=O)Nc2ccc3c(c2)CCC(=O)N3CC(C)C)cc1 ; RP-LC retention time observed: 901

Sample CCN(c1cccc(C)c1)S(=O)(=O)c1cc(-c2[nH]ncc2C(=O)N(C)C)oc1C ; RP-LC retention time observed: 792

Sample CCC1=NS(=O)(=O)c2cccnc2N1c1ccc(Br)cc1 ; RP-LC retention time observed: 903

Sample Cc1ccc2c(Nc3cc(F)ccc3C)c(-c3nc(C)no3)cnc2n1 ; RP-LC retention time observed: 784

Sample CCOCCCN1C(=O)CN(C2CCCCCC2)C(=O)C1c1ccc(OCC)c(OC)c1 (stereo not drawn) ; RP-LC retention time observed: 925

Sample CCOc1ccc(CC(=O)N2C[C@@H]3C[C@H](NC(=O)c4ccccc4)[C@H]2C3)cc1 ; RP-LC retention time observed: 799

---

experiment: gradient 5% acetonitrile 3 min, to 50% in 2 min, to 85% in 15 min, held 3 min, 100 µL/min; settings: column: Zorbax Extend-C18 2.1 x 50 mm; eluents: water / acetonitrile, 0.1% formic acid
Measured property: RP-LC retention time
For clarity, give the value followed by its unit.

Example compounds with recorded RP-LC retention time:
COc1ccc(-c2c(C)noc2NC(C)=O)cc1S(=O)(=O)Nc1ccc(F)c(Cl)c1	803 s
CCc1noc(COC2CCCN(C(=O)NCCc3ccccc3)C2)n1 (stereo not drawn)	796 s

Please look at the following compound next.
Sample O=C(NCC1CCCO1)c1ccc(-c2cnc(Oc3ccccc3)nc2)cc1 (stereo not drawn) ; RP-LC retention time observed: 779 s
